- System: CCRF-CEM leukemia
- test-method-notes: NCI-60 one-dose screen, 48 h
- details: 10 µM
About 83,000 compounds went through this panel and 20% of them were active in at least one assay; those are over-represented in the sample as a whole. Calls of active or inactive are those of the source. Rule for the calls: active = growth percent below 10; inactive = the rest.
Reply using exactly one outcome from Yes (active), No (inactive)

Enquiry: Hi, sorry to bother you, what did the test record for N=S(c1ccccc1[N+](=O)[O-])c1ccccc1[N+](=O)[O-] ?
Return: Yes

Enquiry: Next molecule up: CC1=CC(C)=Nc2ccc(Cl)cc2N1
Return: No

Enquiry: Next molecule up: CCCCCCCCCCCC[N+](C)(C)Cc1ccccc1
Return: Yes

Enquiry: Next molecule up: CC(C)(C)CC(C)(C)c1ccc(OCCO)cc1
Return: No

Enquiry: Next molecule up: CCCCCCCCCCCCCCCCCCOCC(COP(=O)([O-])OCC[N+](C)(C)C)OC (stereo not drawn)
Return: No

Enquiry: Next molecule up: CCCCCCCCCCCCSC(=NC)NC
Return: No

Enquiry: Next molecule up: CC[N+](CC)=c1ccc2nc3c(cc(N)c4ccccc43)oc-2c1
Return: No

###

- System: NCI-H522 lung
- test-method-notes: NCI-60 one-dose screen, 48 h
- details: 10 µM unless noted
The panel holds about 83,000 compounds, 20% with a hit somewhere; the sample as a whole holds those more often. The source made the active and inactive calls. How the source made its calls: active means growth percent below 10; inactive means the rest.
Reply using exactly one outcome from 1.0 (active), 0.0 (inactive)

Enquiry: Hi, sorry to bother you, what did the test record for NNc1c2ccccc2nc2ccccc12 ?
Return: 0.0

Enquiry: Next molecule up: CS(=O)(=O)OC1CC(n2ccc(=O)[nH]c2=O)OC1COC(c1ccccc1)(c1ccccc1)c1ccccc1 (stereo not given)
Return: 0.0

Enquiry: Next molecule up: O=C(O)COc1ccc(OCC(=O)O)cc1
Return: 1.0

Enquiry: Next molecule up: CCCCCC(C)c1ccc(O)c(C)c1 (stereo not given)
Return: 0.0

Enquiry: Next molecule up: Clc1ccc(/C=C/c2ccccn2)c(Cl)c1
Return: 0.0

Enquiry: Next molecule up: O=C(/C=C/c1ccccn1)c1ccccc1
Return: 1.0

Enquiry: Next molecule up: Cc1cc(O)c(C(C)C)cc1Cl
Return: 0.0

Enquiry: Next molecule up: CN1CCN(CCCN2c3ccccc3Sc3ccc(C(F)(F)F)cc32)CC1
Return: 0.0

Enquiry: Next molecule up: CCCCCCCCCCCCCCCCCCOCC(COP(=O)([O-])OCC[N+](C)(C)C)OC (stereo not given)
Return: 0.0

Enquiry: Next molecule up: CO[C@H](C(=O)[C@@H](O)[C@@H](C)O)[C@@H]1Cc2cc3cc(OC4CC(OC5CC(O)C(O)C(C)O5)C(O)C(C)O4)c(C)c(O)c3c(O)c2C(=O)[C@H]1OC1CC(OC2CC(OC3CC(C)(O)C(O)C(C)O3)C(O)C(C)O2)C(O)C(C)O1 (stereo not given in full)
Return: 1.0

###

- Tested on: MOLT-4 leukemia
- test-method-notes: NCI-60 one-dose screen, 48 h (100 = growth as untreated, 0 = no growth, -100 = all killed)
- details: 10 µM
This is part of a sample that, as a whole, favours compounds with a hit. Of some 83,000 tested, about 20% had one in any assay. The source made the active and inactive calls. The calls were made as follows: active = growth percent below 10; inactive = the rest.
quantity: growth

Enquiry: Enter reported growth observed with MOLT-4 leukemia for O=C1C=CC(=CC=C2C=CN(CCCCCCCCCCCO)C=C2)C=C1
Return: 41.9% (inactive)

Enquiry: Next compound up: COc1c(O)cc2oc3cc(O)c(CC=C(C)C)c(O)c3c(=O)c2c1CC=C(C)C
Return: 42.3% (inactive)

Enquiry: Next compound up: NNc1c2ccccc2nc2ccccc12
Return: 29% (inactive)

Enquiry: Next compound up: CO[C@H](C(=O)[C@@H](O)[C@@H](C)O)[C@@H]1Cc2cc3cc(OC4CC(OC5CC(O)C(O)C(C)O5)C(O)C(C)O4)c(C)c(O)c3c(O)c2C(=O)[C@H]1OC1CC(OC2CC(OC3CC(C)(O)C(O)C(C)O3)C(O)C(C)O2)C(O)C(C)O1 (some centres not stated)
Return: 6.22% (active)

Enquiry: Next compound up: O=C1C=C(O)c2ccccc2C1=O.[Ag]
Return: 105% (inactive)

Enquiry: Next compound up: CC1=CC(C)=Nc2ccc(Cl)cc2N1
Return: 97.5% (inactive)

Enquiry: Next compound up: COC1OCC(O)C(O)C1O (configuration not stated)
Return: 101% (inactive)

Enquiry: Next compound up: Cc1nc(N=C(N)N)nc2ccc3ccccc3c12
Return: -28.2% (active)

Enquiry: Next compound up: OC(CN1CCCC2CCCCC21)c1cc2ccccc2c2ccccc12 (configuration not stated)
Return: -1.89% (active)

Enquiry: Next compound up: CC[N+](CC)=c1ccc2nc3c(cc(N)c4ccccc43)oc-2c1
Return: -44.4% (active)

Enquiry: Next compound up: O=C(O)COc1ccc(OCC(=O)O)cc1
Return: 9.12% (active)

Enquiry: Next compound up: CCCCCCCCCCCC[N+](C)(C)Cc1ccccc1
Return: -21.9% (active)

Enquiry: Next compound up: NC1=C(Cl)C(=O)c2ccccc2C1=O
Return: 56.1% (inactive)

Enquiry: Next compound up: CCN(CC)c1ccc(NC(C(=O)c2ccccc2)c2ccccc2)cc1 (configuration not stated)
Return: 12.8% (inactive)

Enquiry: Next compound up: N=S(c1ccccc1[N+](=O)[O-])c1ccccc1[N+](=O)[O-]
Return: 98.9% (inactive)

Enquiry: Next compound up: CSC1SCC2C(=O)N(C)C(C(C)C)C(=O)OCC(NC(=O)c3cnc4ccccc4n3)C(=O)NC(C)C(=O)N(C)C1C(=O)N(C)C(C(C)C)C(=O)OCC(NC(=O)c1cnc3ccccc3n1)C(=O)NC(C)C(=O)N2C (configuration not stated)
Return: -33.8% (active)

Enquiry: Next compound up: COc1cccc2c1C(=O)c1c(O)c3c(c(O)c1C2=O)C[C@@](O)(C(=O)CO)C[C@@H]3OC1CC(N)C(O)C(C)O1 (some centres not stated)
Return: -12% (active)

Enquiry: Next compound up: CCO/C=C1\SC(=S)N(c2cccc(O)c2)C1=O
Return: 96.7% (inactive)

Enquiry: Next compound up: CCCCCC(C)c1ccc(O)c(C)c1 (configuration not stated)
Return: 93% (inactive)

Enquiry: Next compound up: O=c1ccn(C2CC(O)C(COC(c3ccccc3)(c3ccccc3)c3ccccc3)O2)c(=O)[nH]1 (configuration not stated)
Return: 67.1% (inactive)

Enquiry: Next compound up: COC(=O)C1C(O)C(C)C(O)C(C)C=C(C)C2=C3C(=C(C)C(=O)c4c(O)c(c(C)c(OC(C)=O)c43)NC(=O)C(C)=C/C=C\C(C)C(O)C(C)C1O)OCO2 (configuration not stated)
Return: 153% (inactive)

Enquiry: Next compound up: C[n+]1c2cc(N)ccc2cc2ccc(N)cc21
Return: 9.49% (active) [middle of 4 runs]

Enquiry: Next compound up: O=C1NC(=O)c2cc([N+](=O)[O-])ccc21
Return: 96.9% (inactive)

Enquiry: Next compound up: CN1CCN(CCCN2c3ccccc3Sc3ccc(C(F)(F)F)cc32)CC1
Return: 37.6% (inactive)

Enquiry: Next compound up: CCCCCCCCCCCCCCCCCCOCC(COP(=O)([O-])OCC[N+](C)(C)C)OC (configuration not stated)
Return: 89.4% (inactive)

Enquiry: Next compound up: CCN1/C(=C/C=C/C=C/c2sc3ccccc3[n+]2CC)Sc2ccccc21
Return: -31.7% (active)

Enquiry: Next compound up: NC(=O)SCC(=O)NNc1ccccc1
Return: 111% (inactive)

###

- Test system: SN12C renal
- test-method-notes: NCI-60 one-dose screen, 48 h
- details: 10 µM
Compounds without any hit were thinned out: in the full panel of roughly 83,000, 20% have a hit. Calls of active or inactive are those of the source. The calls were made as follows: active = growth percent below 10; inactive = the rest.
Reply using exactly one outcome from active, inactive

Enquiry: Hi, sorry to bother you, what did the test record for NC1=C(Cl)C(=O)c2ccccc2C1=O ?
Return: inactive

Enquiry: Next compound up: O=C1C=C(O)c2ccccc2C1=O.[Ag]
Return: inactive

Enquiry: Next compound up: O=[N+]([O-])C1=C(c2ccccc2)SC=C(c2ccccc2)S1
Return: inactive

Enquiry: Next compound up: CCN1/C(=C/C=C/C=C/c2sc3ccccc3[n+]2CC)Sc2ccccc21
Return: active

Enquiry: Next compound up: O=C(/C=C/c1cccnc1)c1ccccc1
Return: inactive

Enquiry: Next compound up: Cc1cc(O)c(C(C)C)cc1Cl
Return: inactive

Enquiry: Next compound up: COC1OCC(O)C(O)C1O (stereo not drawn)
Return: inactive

Enquiry: Next compound up: COC(=O)C1C(O)C(C)C(O)C(C)C=C(C)C2=C3C(=C(C)C(=O)c4c(O)c(c(C)c(OC(C)=O)c43)NC(=O)C(C)=C/C=C\C(C)C(O)C(C)C1O)OCO2 (stereo not drawn)
Return: inactive
